- ASSAY METHOD TEXT: chemical genetic growth profiling, strain panel (AID 1159580);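 note: tested at 20 µM; growth read once vehicle control cultures reached saturation at 30 °C; 1 = growth at the plate median or of vehicle wells; lower values mean less growth of the strain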
- ASSAY SETUP: S. cerevisiae deletion strains, growth OD, locus YGR078C, strain PAC10, stronger effect = lower value
The whole screen tested about 5,500 compounds, of which about 2,000 (36%) were called active. Not shown: some 18% with an inconclusive outcome. The list shows a part of the results.
MEASUREMENT KIND: normalized growth

INSERT INTO assay_data (molecule, readout_value) VALUES
  ('COc1ccccc1N1CCNCC1', 1),
  ('NC(=O)c1cc[n+](CC2=C(C(=O)O)N3C(=O)C(NC(=O)C(c4ccccc4)S(=O)(=O)[O-])C3SC2)cc1 (stereo unspecified)', 1.01),
  ('CCOC(=O)c1c(C)n(-c2ccccc2)c2ccc(O)cc12', 0.995),
  ('CCC(CCC(C)C1CCC2C3CC=C4C[C@@H](OC(C)=O)CC[C@]4(C)C3CC[C@]12C)C(C)C (stereo partly specified)', 0.989),
  ('O=C(O)CNCP(=O)(O)O', 1.01),
  ('O=C(O)P(=O)(O)O', 0.93),
  ('Cn1ccc2cc3c(cc21)CCN3C(=O)Nc1cccnc1', 0.998),
  ('CC(=O)O[C@H]1CC[C@@]2(C)C(=CCC3C2CC[C@@]2(C)C3CC[C@@H]2C(C)CCCC(C)C)C1 (stereo partly specified)', 1.03),
  ('CC[C@@H]1[C@@H](O)N2C3C[C@H]1C1C(O)[C@]4(C[C@@H]12)c1ccccc1N(C)[C@@H]34 (stereo partly specified)', 0.984),
  ('c1ccc2c(N3CCNCC3)cccc2c1', 0.993),
  ('BrC12CC3CC(CC(C3)C1)C2', 0.997);

* * *

- ASSAY METHOD TEXT: chemical genetic growth profiling, strain panel (AID 1159580);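 note: tested at 20 µM; growth read once vehicle control cultures reached saturation at 30 °C; 1 = growth at the plate median or of vehicle wells; lower values mean less growth of the strain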
- ASSAY SETUP: S. cerevisiae deletion strains, growth OD, locus YPR119W, strain clb2, stronger effect = lower value
Among all 5,500 compounds or so, about 2,000 (36%) were called active. Roughly 18% stayed inconclusive and do not appear here. This is one part of the list.
normalized growth reference
MEASUREMENT KIND: normalized growth

INSERT INTO results (compound, measurement_kind, readout_value) VALUES
  ('COc1ccc(-c2cc(C(F)F)nn2-c2ccc(S(N)(=O)=O)cc2)cc1F', 'normalized growth', 1),
  ('CCOP(=S)(OCC)SCCSCC', 'normalized growth', 0.99),
  ('CCOP(=S)(OCC)SCSCC', 'normalized growth', 0.997),
  ('COC(=O)[C@H]1[C@H]2C[C@@H]3c4[nH]c5cc(OC)ccc5c4CCN3C[C@H]2C[C@@H](OC(=O)c2cc(OC)c(OC)c(OC)c2)[C@@H]1OC', 'normalized growth', 1.01),
  ('CCOP(=S)(OCC)SCSP(=S)(OCC)OCC', 'normalized growth', 0.993),
  ('CC(=O)OCC(=O)[C@@]12OC(C)(C)O[C@@H]1CC1C3C[C@H](F)C4=CC(=O)C=C[C@]4(C)[C@@]3(F)[C@@H](O)C[C@@]12C (stereo partly specified)', 'normalized growth', 1.01);

* * *

- ASSAY METHOD TEXT: chemical genetic growth profiling, strain panel (AID 1159580);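 note: tested at 20 µM; growth read once vehicle control cultures reached saturation at 30 °C; 1 = growth at the plate median or of vehicle wells; lower values mean less growth of the strain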
- ASSAY SETUP: S. cerevisiae deletion strains, growth OD, locus YPR141C, strain kar3
The whole screen tested about 5,500 compounds, of which about 2,000 (36%) were called active. About 18% were inconclusive and are not listed. Rule as the data show it: active = normalized growth mostly below about 0.91 (no sharp cut-off); inconclusive = no clear call, values can overlap the other calls; inactive = mostly above about 0.92. This is one part of the list.
Labels: True (active), False (inactive)

INSERT INTO assay_data (compound, class_label) VALUES
  ('CN1CCc2cccc3c2C1Cc1ccc(O)c(O)c1-3 (stereo not given)', 'False'),
  ('O=c1ccn([C@@H]2O[C@H](COP(=O)(O)OP(=O)(O)OP(=O)(O)O)[C@@H](O)[C@H]2O)c(=O)[nH]1', 'False'),
  ('CCCCC(CC)CN=C(N)NC(N)=NCCCCCCN=C(N)NC(N)=NCC(CC)CCCC (stereo not given)', 'True'),
  ('Nc1nc2ncc(CNc3ccc(C(=O)N[C@@H](CCC(=O)O)C(=O)O)cc3)nc2c(=O)[nH]1', 'False'),
  ('Nc1nc2c(c(=O)[nH]1)N(C=O)C(CNc1ccc(C(=O)N[C@@H](CCC(=O)O)C(=O)O)cc1)CN2 (stereo not given in full)', 'False'),
  ('NC(=O)c1cnccn1', 'False'),
  ('NCc1ccc(S(N)(=O)=O)cc1', 'False'),
  ('S=c1[nH]c2ccccc2s1', 'False'),
  ('Nc1nc(N)c2nc(CNc3ccc(C(=O)NC(CCC(=O)O)C(=O)O)cc3)cnc2n1 (stereo not given)', 'False'),
  ('CN(Cc1cnc2nc(N)nc(N)c2n1)c1ccc(C(=O)NC(CCC(=O)O)C(=O)O)cc1 (stereo not given)', 'True');
